# assayRemarks: Fate of an i.p. tracer dose of [3H]Urd in mouse plasma
# Assay type: in vivo
# setupConditions: UPP-1-TG (ubiquitous UPP-1 transgenic), mouse, plasma, ip, 25 μCi, UPP-1-TG mice, tracer dose 25 μCi i.p.; read-out: [3H]Urd t1/2
measuredAttribute: half-life

I would be grateful if you could share the reported half-life for O=c1ccn([C@@H]2O[C@H](CO)[C@@H](O)[C@H]2O)c(=O)[nH]1 [[^3H]Urd] .
< 30 s

---

# assayRemarks: Fate of an i.p. tracer dose of [3H]Urd in mouse plasma
# Type: in vivo
# setupConditions: C57BL/6, mouse, plasma, ip, 25 μCi/mouse, wild-type (WT) mice, tracer dose 25 μCi/mouse i.p.; read-out: [3H]Urd plasma t1/2
measuredAttribute: half-life

Record request: half-life value, item O=c1ccn([C@@H]2O[C@H](CO)[C@@H](O)[C@H]2O)c(=O)[nH]1 [[^3H]Urd]
~4 min

---

# assayRemarks: Fate of an i.p. tracer dose of [3H]Urd in mouse plasma
# Assay type: in vivo
# setupConditions: mouse, plasma, ip, 25 μCi/mouse, UPP-1-KO mice, tracer dose 25 μCi/mouse i.p.; read-out: [3H]Urd plasma t1/2
# Excerpt: The UPP-1-KO mouse was created by replacing a 2.5 kb fragment of the UPP-1 gene (including exons 4 and 5) with a 1.6 kb neomycin resistance expression cassette. See, e.g., Cao, D. et al. (2002) Cancer Res. 62: 2313-2317 and Cao, D. et al. (2005) J. Biol. Chem. 280: 21169-21175. […] The absence of UPP-1 phosphorolytic (UPase) activity was confirmed by determining the fate of a tracer dose (25 μCi/mouse) of [^3H]Urd injected intraperitoneally (i.p.) in mice. […]
measuredAttribute: half-life

Consider the molecule O=c1ccn([C@@H]2O[C@H](CO)[C@@H](O)[C@H]2O)c(=O)[nH]1 [[^3H]Urd] and give its measured half-life.
15 to 18 min
